System under test: mGluR5 receptor (Sus scrofa, UniProt I3LUI7)
Construct: 450 μg of protein from brain homogenate with 5 nM ^3[H]-MPEP; from tissue; host or cells: pig brain halves without medulla, cerebellum and pons
Sequence (I3LUI7 19-1212): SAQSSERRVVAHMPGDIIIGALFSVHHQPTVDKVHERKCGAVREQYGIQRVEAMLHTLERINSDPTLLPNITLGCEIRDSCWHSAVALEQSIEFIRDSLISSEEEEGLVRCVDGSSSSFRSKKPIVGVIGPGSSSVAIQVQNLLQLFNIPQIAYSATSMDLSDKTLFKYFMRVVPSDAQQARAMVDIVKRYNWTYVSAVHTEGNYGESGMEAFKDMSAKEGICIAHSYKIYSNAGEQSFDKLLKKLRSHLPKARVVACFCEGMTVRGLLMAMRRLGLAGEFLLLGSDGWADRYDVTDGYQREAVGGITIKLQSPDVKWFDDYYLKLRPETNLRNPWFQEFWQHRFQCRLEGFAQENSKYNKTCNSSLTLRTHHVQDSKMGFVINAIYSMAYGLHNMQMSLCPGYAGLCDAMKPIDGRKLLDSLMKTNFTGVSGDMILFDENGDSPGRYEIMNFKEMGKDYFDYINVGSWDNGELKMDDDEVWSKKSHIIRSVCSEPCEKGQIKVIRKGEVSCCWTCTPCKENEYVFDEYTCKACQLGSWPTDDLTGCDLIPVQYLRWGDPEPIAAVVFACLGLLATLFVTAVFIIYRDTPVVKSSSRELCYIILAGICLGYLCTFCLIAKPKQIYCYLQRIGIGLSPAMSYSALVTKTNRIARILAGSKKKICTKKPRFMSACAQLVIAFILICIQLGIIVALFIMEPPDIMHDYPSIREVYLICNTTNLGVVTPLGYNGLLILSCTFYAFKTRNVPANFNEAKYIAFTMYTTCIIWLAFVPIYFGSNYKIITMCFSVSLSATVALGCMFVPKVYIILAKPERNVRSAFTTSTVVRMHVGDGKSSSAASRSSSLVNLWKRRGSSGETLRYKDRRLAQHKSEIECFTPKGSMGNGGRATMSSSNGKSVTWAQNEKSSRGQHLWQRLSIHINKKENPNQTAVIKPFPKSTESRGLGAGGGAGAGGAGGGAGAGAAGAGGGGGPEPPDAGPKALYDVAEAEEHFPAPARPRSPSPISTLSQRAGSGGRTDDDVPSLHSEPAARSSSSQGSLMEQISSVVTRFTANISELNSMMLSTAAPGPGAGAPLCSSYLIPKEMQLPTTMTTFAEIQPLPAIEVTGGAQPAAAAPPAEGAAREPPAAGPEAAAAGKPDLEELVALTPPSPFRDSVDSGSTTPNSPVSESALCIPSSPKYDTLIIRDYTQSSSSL
Assay protocol: [3H]-MPEP mGluR5 receptor binding assay (pig brain homogenate)
Study conditions: 10 μM compound, 5 nM [3H]-MPEP, read-out: % Inhibition of mGluR5 Receptor (pig) [^3H]-MPEP Bond at 10 μM
Assay readout: inhibition at 10 µM (%)

CC(C)(C)Nc1ncnc2ccc(-c3ccc(F)c(CN(C(=O)c4cccc(C(F)(F)F)c4)C4CC4)c3)cc12 [Example 808]: 81
O=C(c1ccc(C(F)(F)F)cc1F)N(Cc1cccc(-c2cc(F)c3ncnc(NC4CC4)c3c2)c1)C1CC1 [Example 738]: 90
O=C(Cc1ccccc1)N(Cc1cc(-c2ccc3ncnc(NC4CC4)c3c2)ccc1Cl)C1CC1 [Example 748]: 66
Cc1cc2ncnc(NC3CC3)c2cc1-c1cccc(CN(C(=O)c2ccc(F)cc2F)C2CC2)c1 [Example 660]: 94
